B1: FCHO1 (parent)
chain: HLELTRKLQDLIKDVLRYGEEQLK

Variants of: B1
protocolNotes: protein stability index of a GFP-peptide fusion (GPS, HEK-293T) (PSI 1-6); higher = more stable;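 note: lentivirally expressed fusions sorted by FACS into six bins by GFP to DsRed ratio, PSI derived from sequencing read proportions per bin multiplied by bin number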
conditionDescription: c terminus: a fixed tail appended
// map protein stability index onto a label; ranges low value (below 2), medium value (2 to below 3), high value (3 or more)

INSERT INTO results (variantkey, classassignment) VALUES
  ('Y18R', 'medium value'),
  ('K7D', 'medium value'),
  ('L11D', 'high value'),
  ('L2N', 'medium value'),
  ('L8E', 'high value'),
  ('E3T', 'high value'),
  ('L4P', 'low value'),
  ('R6W', 'medium value'),
  ('R6H', 'high value'),
  ('E20W', 'high value'),
  ('L11F', 'high value'),
  ('L8I', 'high value'),
  ('L16I', 'medium value'),
  ('D14R', 'high value'),
  ('V15G', 'medium value'),
  ('K24E', 'low value'),
  ('Y18P', 'medium value'),
  ('D14Q', 'high value'),
  ('E20T', 'low value');
